Assay: Cytotoxicity against C57BL/6J mouse primary hepatocytes assessed as cell viability at 10 uM incubated for 24 hrs by MTT assay relative to control
Type: toxicity, cell-based, Hepatocyte
Settings: read-out: Activity
# viability at 24 h, 10 µM per record follows
Reply with the number and its unit after it.

In: I'd like to know its viability at 24 h, 10 µM. The compound in question is COC(=O)[C@@]12CCCC3([C@H](OCCCCO)OC1)[C@H]2CC[C@H]1[C@@H](C)c2ccoc2C[C@@H]13
Out: 54%

In: I'd like to know its viability at 24 h, 10 µM. The compound in question is COC(=O)[C@@]12CCCC3([C@H](OCCO)OC1)[C@H]2CC[C@H]1[C@@H](C)c2ccoc2C[C@@H]13
Out: 98.4%

In: I'd like to know its viability at 24 h, 10 µM. The compound in question is CC(=O)OCCO[C@@H]1OC[C@@]2(CO)CCCC13[C@H]2CC[C@H]1[C@@H](C)c2ccoc2C[C@@H]13
Out: 81.7%

In: I'd like to know its viability at 24 h, 10 µM. The compound in question is COC(=O)[C@@]12CCCC3([C@H](OCCCCCCO)OC1)[C@H]2CC[C@H]1[C@@H](C)c2ccoc2C[C@@H]13
Out: 89.3%

In: I'd like to know its viability at 24 h, 10 µM. The compound in question is COC(=O)[C@@]12CCCC3([C@H](OCCCCCO)OC1)[C@H]2CC[C@H]1[C@@H](C)c2ccoc2C[C@@H]13
Out: 70.1%

In: I'd like to know its viability at 24 h, 10 µM. The compound in question is COC(=O)[C@@]12CCCC3([C@H](OCCOCCOCCOCCO)OC1)[C@H]2CC[C@H]1[C@@H](C)c2ccoc2C[C@@H]13
Out: 48.9%

In: I'd like to know its viability at 24 h, 10 µM. The compound in question is COC(=O)[C@@]12CCCC3([C@H](OCCOCCOCCO)OC1)[C@H]2CC[C@H]1[C@@H](C)c2ccoc2C[C@@H]13
Out: 40.5%

In: I'd like to know its viability at 24 h, 10 µM. The compound in question is COC(=O)[C@]12CCCC3([C@H]1CC[C@H]1[C@@H](C)c4ccoc4C[C@@H]13)[C@H](SCCO)OC2
Out: 105%

In: I'd like to know its viability at 24 h, 10 µM. The compound in question is CNC(=O)[C@@]12CCCC3([C@H](OCCO)OC1)[C@H]2CC[C@H]1[C@@H](C)c2ccoc2C[C@@H]13
Out: 82.9%

In: I'd like to know its viability at 24 h, 10 µM. The compound in question is CC(=O)OC[C@@]12CCCC3([C@H](OCCO)OC1)[C@H]2CC[C@H]1[C@@H](C)c2ccoc2C[C@@H]13
Out: 83.2%

In: I'd like to know its viability at 24 h, 10 µM. The compound in question is CCCNC(=O)[C@@]12CCCC3([C@H](OCCO)OC1)[C@H]2CC[C@H]1[C@@H](C)c2ccoc2C[C@@H]13
Out: 84.3%

In: I'd like to know its viability at 24 h, 10 µM. The compound in question is COC(=O)[C@@]12CCCC3([C@H](OCCCO)OC1)[C@H]2CC[C@H]1[C@@H](C)c2ccoc2C[C@@H]13
Out: 49.7%

In: I'd like to know its viability at 24 h, 10 µM. The compound in question is COC(=O)[C@@]12CCCC3([C@H](O)OC1)[C@H]2CC[C@H]1[C@@H](C)c2ccoc2C[C@@H]13
Out: 99%

In: I'd like to know its viability at 24 h, 10 µM. The compound in question is CCNC(=O)[C@@]12CCCC3([C@H](OCCO)OC1)[C@H]2CC[C@H]1[C@@H](C)c2ccoc2C[C@@H]13
Out: 84.2%

In: I'd like to know its viability at 24 h, 10 µM. The compound in question is COC(=O)[C@@]12CCCC3([C@H](OCCOCCO)OC1)[C@H]2CC[C@H]1[C@@H](C)c2ccoc2C[C@@H]13
Out: 28.3%

In: I'd like to know its viability at 24 h, 10 µM. The compound in question is C[C@H]1c2ccoc2C[C@H]2[C@H]1CC[C@@H]1C23CCC[C@]1(CO)CO[C@H]3OCCO
Out: 74.8%
